# Measurement notes: Selectivity ratio of CC50 for cytotoxicity against human MT4 cells to IC50 for antiviral activity against HIV-1 NL4-3 infected in human MT4 cells
# Format: toxicity, cell-based
# Protocol conditions: read-out: Ratio CC50/IC50

{"Smiles repr": "CCCCCCCC(=O)O[C@@]12[C@H](OC(=O)c3ccccc3)[C@@H](C)[C@@]3(O)[C@H]([C@@H]1C2(C)C)[C@@H](OO)C(CO)=C[C@]1(O)C(=O)C(C)=C[C@@H]31", "selectivity ratio": "< 5"}

---

# Measurement notes: Cytotoxicity against human MT4 cells assessed as reduction in cell viability after 48 hrs by CellTiter-Glo assay
# Type: cell-based
Measured metric: CC50 at 48 h

{"Smiles repr": "CCCCCCCC(=O)O[C@@]12[C@H](OC(=O)CCCCC)[C@@H](C)[C@@]3(O)[C@@H](C(=O)C(CO)=C[C@]4(O)C(=O)C(C)=C[C@@H]34)[C@@H]1C2(C)C", "Measured metric": "CC50 at 48 h", "Result": "> 164 nM"}
{"Smiles repr": "C=C(C)[C@]12C[C@@H](COC(=O)c3ccccc3)[C@@]34O[C@]5(O[C@@H]1[C@@H]3[C@@H]1O[C@]1(CO)[C@@H](O)[C@@]1(O)[C@H]4[C@H]([C@H](C)[C@@H]1OC(=O)c1ccccc1)[C@H](C)CCCCCC[C@H]5O)O2", "Measured metric": "CC50 at 48 h", "Result": "> 5 nM"}
{"Smiles repr": "CCCCCCCC(=O)O[C@@]12[C@H](OC(=O)c3ccccc3)[C@@H](C)[C@@]3(O)[C@H]([C@@H]1C2(C)C)[C@@H](O)C(CO)=C[C@]1(O)C(=O)C(C)=C[C@@H]31", "Measured metric": "CC50 at 48 h", "Result": "> 164 nM"}
{"Smiles repr": "CCCCCCCC(=O)O[C@@]12[C@H](OC(=O)c3ccccc3)[C@@H](C)[C@@]3(O)[C@@H](C(=O)C(CO)=C[C@]4(O)C(=O)C(C)=C[C@@H]34)[C@@H]1C2(C)C", "Measured metric": "CC50 at 48 h", "Result": "> 164 nM"}
{"Smiles repr": "CCCCCCCC(=O)O[C@@]12[C@H](OC(=O)c3ccccc3)[C@@H](C)[C@@]3(O)C(=C[C@](O)(CO)C[C@]4(O)C(=O)C(C)=C[C@@H]34)[C@@H]1C2(C)C", "Measured metric": "CC50 at 48 h", "Result": "> 164 nM"}
{"Smiles repr": "CCCCCCCC(=O)O[C@@]12[C@H](OC(=O)c3ccccc3)[C@@H](C)[C@]3(O)[C@@H]4C=C(C)C(=O)[C@@]4(O)[C@H](O)C(CO)=C[C@H]3[C@@H]1C2(C)C", "Measured metric": "CC50 at 48 h", "Result": "> 164 nM"}
